# key: entry, value: hours of incubation required to obtain the maximum level of fluorescence
test system: S. epidermidis 009; assay: Experiment 5: fluorescent substrates in liquid medium, VITEK 2 reading; format: cell-based, Staphylococcus epidermidis; conditions: substrate 200 mg/l, read over 19 hours
measured.parameter: hours of incubation required to obtain the maximum level of fluorescence (h)

>  <compound>
Cc1cc(=O)oc2cc(O[C@@H]3O[C@H](CO)[C@H](O)[C@H](O)[C@H]3O)ccc12 [4-MU-β-GAL, 4-methylumbelliferyl-β-D-galactoside]

>  <target.or.test.system>
S. epidermidis 009

>  <unit.info>
h

>  <numeric.result>
4

$$$$
>  <compound>
Cc1cc(=O)oc2cc(O[C@H]3O[C@H](CO)[C@@H](O)[C@H](O)[C@H]3O)ccc12 [4-MU-α-GLU, 4-methylumbelliferyl-α-D-glucoside]

>  <target.or.test.system>
S. epidermidis 009

>  <unit.info>
h

>  <numeric.result>
19

$$$$
>  <compound>
Cc1cc(=O)oc2cc(O[C@@H]3O[C@H](CO)[C@@H](O)[C@H](O)[C@H]3O)ccc12 [4-MU-β-GLU, 4-methylumbelliferyl-β-D-glucoside]

>  <target.or.test.system>
S. epidermidis 009

>  <unit.info>
h

>  <numeric.result>
8

$$$$
>  <compound>
Cc1cc(=O)oc2cc(O[C@@H]3O[C@H](C(=O)O)[C@@H](O)[C@H](O)[C@H]3O)ccc12 [4-MU-β-GUR, 4-methylumbelliferyl-β-D-glucuronide]

>  <target.or.test.system>
S. epidermidis 009

>  <unit.info>
h

>  <numeric.result>
4

$$$$
